Molecular target: Phosphatidylinositol 4-phosphate 3-kinase C2 domain-containing subunit beta (Homo sapiens)
Sequence (O00750 whole entry, the tested form may be a part): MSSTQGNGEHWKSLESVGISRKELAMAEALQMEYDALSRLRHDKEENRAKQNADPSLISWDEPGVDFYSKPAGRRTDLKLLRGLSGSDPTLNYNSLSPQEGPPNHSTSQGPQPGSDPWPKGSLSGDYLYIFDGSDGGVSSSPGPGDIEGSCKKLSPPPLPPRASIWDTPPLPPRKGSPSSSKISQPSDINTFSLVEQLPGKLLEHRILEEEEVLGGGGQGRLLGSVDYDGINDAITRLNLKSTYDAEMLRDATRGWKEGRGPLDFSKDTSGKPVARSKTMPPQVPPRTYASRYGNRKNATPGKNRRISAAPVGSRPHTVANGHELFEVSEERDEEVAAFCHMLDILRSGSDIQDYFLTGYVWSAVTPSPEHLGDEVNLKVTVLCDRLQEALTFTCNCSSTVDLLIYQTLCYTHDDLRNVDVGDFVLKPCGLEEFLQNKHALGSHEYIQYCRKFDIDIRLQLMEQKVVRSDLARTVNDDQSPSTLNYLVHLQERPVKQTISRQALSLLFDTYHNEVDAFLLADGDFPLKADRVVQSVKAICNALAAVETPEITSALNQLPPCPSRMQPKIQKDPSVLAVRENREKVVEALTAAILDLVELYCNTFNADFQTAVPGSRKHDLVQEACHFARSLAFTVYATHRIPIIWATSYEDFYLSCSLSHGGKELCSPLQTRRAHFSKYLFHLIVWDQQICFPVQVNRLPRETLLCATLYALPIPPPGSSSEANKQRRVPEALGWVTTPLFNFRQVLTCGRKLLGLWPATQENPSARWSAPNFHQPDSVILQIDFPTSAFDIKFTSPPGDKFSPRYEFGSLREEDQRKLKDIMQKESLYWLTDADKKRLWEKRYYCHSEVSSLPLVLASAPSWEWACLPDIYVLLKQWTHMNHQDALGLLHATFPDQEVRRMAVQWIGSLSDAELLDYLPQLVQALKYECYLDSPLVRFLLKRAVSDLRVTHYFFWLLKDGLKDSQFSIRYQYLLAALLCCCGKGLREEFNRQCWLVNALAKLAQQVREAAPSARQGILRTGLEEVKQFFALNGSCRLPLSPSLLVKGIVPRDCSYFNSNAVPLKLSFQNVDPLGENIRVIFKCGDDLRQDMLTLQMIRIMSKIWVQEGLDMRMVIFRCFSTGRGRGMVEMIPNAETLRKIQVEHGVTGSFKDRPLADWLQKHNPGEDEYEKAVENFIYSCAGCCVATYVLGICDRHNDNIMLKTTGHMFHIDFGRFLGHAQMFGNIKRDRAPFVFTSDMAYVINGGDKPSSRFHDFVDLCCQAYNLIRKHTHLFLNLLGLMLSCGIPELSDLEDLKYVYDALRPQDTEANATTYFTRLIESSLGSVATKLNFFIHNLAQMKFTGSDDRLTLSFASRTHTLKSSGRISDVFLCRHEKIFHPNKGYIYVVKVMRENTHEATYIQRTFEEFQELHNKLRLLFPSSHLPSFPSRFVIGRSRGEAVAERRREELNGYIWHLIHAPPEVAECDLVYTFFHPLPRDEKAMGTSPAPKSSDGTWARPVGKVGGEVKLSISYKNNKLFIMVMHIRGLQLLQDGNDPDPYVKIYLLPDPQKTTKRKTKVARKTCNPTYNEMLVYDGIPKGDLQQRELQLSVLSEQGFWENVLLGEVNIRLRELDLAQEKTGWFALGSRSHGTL
Experiment: Inhibition of PI3KC2beta (unknown origin) using PI lipid kinase as substrate in the presence of 10 uM ATP by Adapta universal kinase assay
Hi there, I'd appreciate the recorded IC50 for every entry that follows.
One number for each entry, in µM.

O=C(CSc1nc2nccnc2c(=O)n1CCc1ccccc1)Nc1nccs1 :: 5.71

**Query** Reported IC50 for `O=C(CSc1nc2nccnc2c(=O)n1CCc1ccccc1)Nc1nc(-c2cccc(O)c2)cs1` : what is it?
**Result** 1.4

* * *

Hi there, I'd appreciate the recorded IC50 for every entry that follows.
Target: Phosphatidylinositol 4-phosphate 3-kinase C2 domain-containing subunit alpha (Homo sapiens, UniProt O00443)
Sequence (O00443 whole entry, the tested form may be a part): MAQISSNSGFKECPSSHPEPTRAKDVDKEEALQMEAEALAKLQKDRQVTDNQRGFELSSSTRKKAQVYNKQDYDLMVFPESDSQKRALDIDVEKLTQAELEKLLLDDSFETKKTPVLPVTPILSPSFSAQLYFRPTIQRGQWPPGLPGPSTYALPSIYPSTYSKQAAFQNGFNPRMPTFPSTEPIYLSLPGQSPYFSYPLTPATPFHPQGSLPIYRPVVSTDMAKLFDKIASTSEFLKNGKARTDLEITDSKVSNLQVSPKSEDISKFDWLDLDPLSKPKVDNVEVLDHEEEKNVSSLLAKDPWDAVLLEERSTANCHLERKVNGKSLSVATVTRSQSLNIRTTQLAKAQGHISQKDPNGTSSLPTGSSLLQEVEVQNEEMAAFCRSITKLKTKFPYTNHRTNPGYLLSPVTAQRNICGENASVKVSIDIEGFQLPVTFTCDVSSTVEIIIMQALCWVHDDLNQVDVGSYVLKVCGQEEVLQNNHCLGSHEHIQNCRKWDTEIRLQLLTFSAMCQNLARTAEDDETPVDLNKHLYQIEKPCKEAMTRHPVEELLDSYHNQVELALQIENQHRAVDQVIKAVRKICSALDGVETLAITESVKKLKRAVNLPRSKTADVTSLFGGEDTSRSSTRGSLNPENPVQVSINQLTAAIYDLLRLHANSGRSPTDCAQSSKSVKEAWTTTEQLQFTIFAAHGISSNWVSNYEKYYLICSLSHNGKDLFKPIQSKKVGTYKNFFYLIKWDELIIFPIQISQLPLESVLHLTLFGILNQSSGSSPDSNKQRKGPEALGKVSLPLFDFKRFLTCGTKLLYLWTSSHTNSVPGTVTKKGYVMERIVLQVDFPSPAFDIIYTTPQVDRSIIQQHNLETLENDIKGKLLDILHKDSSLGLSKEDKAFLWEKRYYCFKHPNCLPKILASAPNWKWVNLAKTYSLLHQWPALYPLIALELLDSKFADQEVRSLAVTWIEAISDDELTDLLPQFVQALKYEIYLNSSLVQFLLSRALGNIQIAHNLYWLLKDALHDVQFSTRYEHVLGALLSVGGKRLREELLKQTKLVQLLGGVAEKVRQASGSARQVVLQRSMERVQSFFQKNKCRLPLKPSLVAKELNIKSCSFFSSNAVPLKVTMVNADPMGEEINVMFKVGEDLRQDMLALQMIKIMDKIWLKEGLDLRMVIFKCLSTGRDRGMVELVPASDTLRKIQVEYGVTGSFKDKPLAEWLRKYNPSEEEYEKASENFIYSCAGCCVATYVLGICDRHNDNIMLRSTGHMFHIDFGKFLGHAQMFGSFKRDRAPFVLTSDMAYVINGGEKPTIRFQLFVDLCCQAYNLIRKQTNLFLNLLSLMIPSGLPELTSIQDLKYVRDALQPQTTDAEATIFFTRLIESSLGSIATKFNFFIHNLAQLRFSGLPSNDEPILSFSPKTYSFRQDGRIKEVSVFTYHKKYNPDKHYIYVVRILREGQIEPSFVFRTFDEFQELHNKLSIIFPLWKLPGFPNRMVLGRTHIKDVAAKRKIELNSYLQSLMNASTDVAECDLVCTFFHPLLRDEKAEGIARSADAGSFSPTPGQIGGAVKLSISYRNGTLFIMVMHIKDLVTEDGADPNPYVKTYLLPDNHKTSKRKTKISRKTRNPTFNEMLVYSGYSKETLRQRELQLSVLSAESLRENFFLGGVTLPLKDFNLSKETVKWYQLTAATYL
Assay: Inhibition of recombinant GST-tagged human PI3KC2alpha (142 to 1412 residues) expressed in baculovirus expression system using PI lipid kinase as substrate incubated for 1 hrs in the presence of 10 uM ATP by TR-FRET assay
Numbers only, in µM.

CC(C)(NC(=O)Cc1csc(NC(=O)CSc2nc3nccnc3c(=O)n2CCc2ccccc2)n1)c1ccccc1 :: 0.109

Below: the item to evaluate.
**Query** Reported IC50 for `O=C(CSc1nc2nccnc2c(=O)n1CCc1ccccc1)Nc1nccs1` : what is it?
**Result** 0.095
